assaySystem: Cyclin-dependent kinase 4 (Homo sapiens)
Sequence (P11802 whole entry): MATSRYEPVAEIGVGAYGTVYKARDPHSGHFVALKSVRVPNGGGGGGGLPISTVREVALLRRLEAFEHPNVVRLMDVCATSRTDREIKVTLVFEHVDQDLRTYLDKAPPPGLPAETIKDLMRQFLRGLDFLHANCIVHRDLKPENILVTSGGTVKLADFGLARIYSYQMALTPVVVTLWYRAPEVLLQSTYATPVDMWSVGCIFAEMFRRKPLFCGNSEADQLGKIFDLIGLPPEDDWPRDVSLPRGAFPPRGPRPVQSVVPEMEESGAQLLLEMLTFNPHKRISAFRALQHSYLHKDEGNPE
measurementType: IC50 (µM)
The response must be a number in µM with no trailing unit.

Missing value: IC50, Cyclin-dependent kinase 4 (Homo sapiens), entry Cc1ccc(Cl)c(N(CC#N)c2cc(Nc3ccc(OC[C@@H](O)CN(C)C)cc3)ncn2)c1 . Fill in? 0.047
